TESTED_SYSTEM: cyclooxygenase-1 (U-937 microsomes) (Homo sapiens)
Construct: host or cells: microsomal fraction of U-937 cells
ASSAY_TEXT: Microsomal cyclooxygenase assay, U-937 microsomes
Type: biochemical
EXPERIMENTAL_PARAMETERS: drug 100 nM, 20 μM arachidonic acid

COMPOUND	U-937 % Inhibition [%]
CC(C(=O)O)c1ccc(-c2ccccc2)c(F)c1 (stereo not shown)	57
O=C(O)c1ccccc1Nc1cccc(C(F)(F)F)c1	5
Cc1cc(CC(=O)O)n(C)c1C(=O)c1ccc(Cl)cc1	30
CC(=O)c1ccc(NS(C)(=O)=O)c(Oc2ccc(F)cc2F)c1	0

###

TESTED_SYSTEM: cyclooxygenase-1 (U-937 microsomes) (Homo sapiens)
Construct: host or cells: microsomal fraction of U-937 cells
ASSAY_TEXT: Microsomal cyclooxygenase assay, U-937 microsomes
Format: biochemical
EXPERIMENTAL_PARAMETERS: drug 3 uM, 20 μM arachidonic acid
Item-by-item account of inhibition at 3 µM
PARAMETER: inhibition at 3 µM (%)

COMPOUND	TESTED_SYSTEM	MEASURED_VALUE
CS(=O)(=O)Nc1ccc([N+](=O)[O-])cc1OC1CCCCC1	cyclooxygenase-1 (U-937 microsomes) (Homo sapiens)	0
CS(=O)(=O)c1ccc(-c2cc(Br)sc2-c2ccc(F)cc2)cc1	cyclooxygenase-1 (U-937 microsomes) (Homo sapiens)	48
CSc1ccc(/C=C2/C(C)=C(CC(=O)O)c3cc(F)ccc32)cc1 [Sulindac sulfide]	cyclooxygenase-1 (U-937 microsomes) (Homo sapiens)	4
CS(=O)(=O)Nc1cc2c(cc1Oc1ccc(F)cc1F)C(=O)CC2 [Flosulide]	cyclooxygenase-1 (U-937 microsomes) (Homo sapiens)	0

###

TESTED_SYSTEM: cyclooxygenase-1 (U-937 microsomes) (Homo sapiens, UniProt P23219)
Construct: host or cells: microsomal fraction of U-937 cells
Sequence (P23219 24-599): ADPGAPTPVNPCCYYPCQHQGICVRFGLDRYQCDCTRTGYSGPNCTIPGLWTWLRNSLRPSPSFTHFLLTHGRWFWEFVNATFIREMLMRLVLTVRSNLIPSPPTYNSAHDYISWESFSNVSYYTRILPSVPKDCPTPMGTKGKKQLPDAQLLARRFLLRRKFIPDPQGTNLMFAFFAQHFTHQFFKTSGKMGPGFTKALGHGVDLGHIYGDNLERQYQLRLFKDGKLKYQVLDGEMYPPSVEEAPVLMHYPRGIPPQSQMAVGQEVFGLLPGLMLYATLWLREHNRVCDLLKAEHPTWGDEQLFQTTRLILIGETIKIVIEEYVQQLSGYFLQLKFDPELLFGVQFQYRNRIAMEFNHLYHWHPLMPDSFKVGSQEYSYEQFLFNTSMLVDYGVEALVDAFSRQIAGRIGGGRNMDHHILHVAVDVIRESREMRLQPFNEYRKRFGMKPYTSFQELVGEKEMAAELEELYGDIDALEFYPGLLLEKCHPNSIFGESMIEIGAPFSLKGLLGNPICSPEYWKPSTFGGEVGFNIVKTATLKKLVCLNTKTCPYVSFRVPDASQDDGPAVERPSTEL
ASSAY_TEXT: Microsomal cyclooxygenase assay, U-937 microsomes
Format: biochemical
EXPERIMENTAL_PARAMETERS: drug 100 nM, 20 μM arachidonic acid
Item-by-item account of inhibition at 0.1 µM
PARAMETER: inhibition at 0.1 µM (%)

COMPOUND	TESTED_SYSTEM	PARAMETER	MEASURED_VALUE
CS(=O)(=O)Nc1cc2c(cc1Oc1ccc(F)cc1F)C(=O)CC2 [Flosulide]	cyclooxygenase-1 (U-937 microsomes) (Homo sapiens, UniProt P23219)	inhibition at 0.1 µM	0
CSc1ccc(/C=C2/C(C)=C(CC(=O)O)c3cc(F)ccc32)cc1 [Sulindac sulfide]	cyclooxygenase-1 (U-937 microsomes) (Homo sapiens, UniProt P23219)	inhibition at 0.1 µM	0
CS(=O)(=O)c1ccc(-c2cc(Br)sc2-c2ccc(F)cc2)cc1	cyclooxygenase-1 (U-937 microsomes) (Homo sapiens, UniProt P23219)	inhibition at 0.1 µM	6
CS(=O)(=O)Nc1ccc([N+](=O)[O-])cc1OC1CCCCC1	cyclooxygenase-1 (U-937 microsomes) (Homo sapiens, UniProt P23219)	inhibition at 0.1 µM	0

###

TESTED_SYSTEM: cyclooxygenase-1 (U-937 microsomes) (Homo sapiens, UniProt P23219)
Construct: host or cells: microsomal fraction of U-937 cells
ASSAY_TEXT: Microsomal cyclooxygenase assay, U-937 microsomes
Format: biochemical
EXPERIMENTAL_PARAMETERS: drug 3 uM, 20 μM arachidonic acid

COMPOUND	UNIT_LABEL	U-937 % Inhibition
CC(=O)c1ccc(NS(C)(=O)=O)c(Oc2ccc(F)cc2F)c1 [FK-3311]	%	0
Cc1cc(CC(=O)O)n(C)c1C(=O)c1ccc(Cl)cc1 [Zomipirac]	%	67
CC(C(=O)O)c1ccc(-c2ccccc2)c(F)c1 (stereo not shown) [Fluribprofen]	%	89
O=C(O)c1ccccc1Nc1cccc(C(F)(F)F)c1 [Flufenamic]	%	0
